The reported measurements were obtained from ChEMBL document CHEMBL1127343.

System: Escherichia coli
Experiment: In vitro antibacterial activity was measured on gram negative bacteria Escherichia coli UBMS 90-5 sensitive cell lines
Type: functional
Listed below: MIC values for each entry.

COMPOUND	TESTED_TARGET	OPERATOR_SYMBOL	MIC (µg/mL)
CCCCCCCCCC(=O)Nc1ccc2c(c1O)C(=O)C1=C(O)[C@]3(O)C(O)=C(C(N)=O)C(=O)[C@@H](N(C)C)C3[C@@H](O)C1[C@H]2C (stereo partly drawn)	Escherichia coli	>	32
CN(C)CC(=O)Nc1cc(N(C)C)c2c(c1O)C(=O)C1=C(O)[C@]3(O)C(O)=C(C(N)=O)C(=O)[C@@H](N(C)C)[C@@H]3CC1C2 (stereo partly drawn)	Escherichia coli	=	0.25
C[C@H]1c2ccc(NC(=O)[C@@H]3CCCN3)c(O)c2C(=O)C2=C(O)[C@]3(O)C(O)=C(C(N)=O)C(=O)[C@@H](N(C)C)C3[C@@H](O)C21 (stereo partly drawn)	Escherichia coli	=	2
C[C@H]1c2ccc(NC(=O)[C@@H](N)CCC(N)=O)c(O)c2C(=O)C2=C(O)[C@]3(O)C(O)=C(C(N)=O)C(=O)[C@@H](N(C)C)C3[C@@H](O)C21 (stereo partly drawn)	Escherichia coli	=	16
CN(C)CC(=O)Nc1ccc2c(c1O)C(=O)C1=C(O)[C@]3(O)C(O)=C(C(N)=O)C(=O)[C@@H](N(C)C)[C@@H]3CC1C2 (stereo partly drawn)	Escherichia coli	=	0.25
CN[C@@H](CC(C)C)C(=O)Nc1ccc2c(c1O)C(=O)C1=C(O)[C@]3(O)C(O)=C(C(N)=O)C(=O)[C@@H](N(C)C)C3[C@@H](O)C1[C@H]2C (stereo partly drawn)	Escherichia coli	=	4
C[C@H]1c2ccc(NC(=O)[C@@H](N)CCC(=O)O)c(O)c2C(=O)C2=C(O)[C@]3(O)C(O)=C(C(N)=O)C(=O)[C@@H](N(C)C)C3[C@@H](O)C21 (stereo partly drawn)	Escherichia coli	>	32
CC(C)C[C@@H](N)C(=O)Nc1ccc2c(c1O)C(=O)C1=C(O)[C@]3(O)C(O)=C(C(N)=O)C(=O)[C@@H](N(C)C)C3CC1C2 (stereo partly drawn)	Escherichia coli	=	8
C[C@H]1c2cccc(O)c2C(=O)C2=C(O)[C@]3(O)C(O)=C(C(N)=O)C(=O)[C@@H](N(C)C)[C@@H]3[C@@H](O)C21 (stereo partly drawn)	Escherichia coli	=	1
C[C@H]1c2ccc(NC(=O)[C@@H](N)Cc3ccccc3)c(O)c2C(=O)C2=C(O)[C@]3(O)C(O)=C(C(N)=O)C(=O)[C@@H](N(C)C)C3[C@@H](O)C21 (stereo partly drawn)	Escherichia coli	=	4
C[C@H]1c2ccc(NC(=O)CN(C)C)c(O)c2C(=O)C2=C(O)[C@]3(O)C(O)=C(C(N)=O)C(=O)[C@@H](N(C)C)C3[C@@H](O)C21 (stereo partly drawn)	Escherichia coli	=	0.5
CC(C)C[C@H](N)C(=O)Nc1ccc2c(c1O)C(=O)C1=C(O)[C@]3(O)C(O)=C(C(N)=O)C(=O)[C@@H](N(C)C)C3CC1C2 (stereo partly drawn)	Escherichia coli	=	2
C[C@H]1c2ccc(NC(=O)CN3CCCC3)c(O)c2C(=O)C2=C(O)[C@]3(O)C(O)=C(C(N)=O)C(=O)[C@@H](N(C)C)C3[C@@H](O)C21 (stereo partly drawn)	Escherichia coli	=	0.5
